Origin of measurements: ChEMBL document CHEMBL3885861

Provide the recorded MCH for the entries that follow.
- Organism: Rattus norvegicus
- procedure.details: Open TG-GATES - Regimen: Single
- Type: toxicity, organism-based, Sprague-Dawley
- Design: regimen Single, gender Male, age 6 weeks
- applied.conditions: in vivo, po, 100 mg/kg, 3 h, tissue Blood, route gavage, dose level Low
Answers are plain numbers, in pg.

These solved cases illustrate the format of a correct answer.
[
  {
    "molecule": "CCc1cc(C(N)=S)ccn1 [ETHIONAMIDE]",
    "unit.tag": "pg",
    "MCH": 21.8
  },
  {
    "molecule": "O=C(O)c1cc(/N=N/c2ccc(S(=O)(=O)Nc3ccccn3)cc2)ccc1O",
    "unit.tag": "pg",
    "MCH": 21.5
  },
  {
    "molecule": "Clc1ccccc1CN1CCc2sccc2C1",
    "unit.tag": "pg",
    "MCH": 21.4
  }
]

Now for another entry.
Q) Identify the reported MCH for the following entry. "C[C@H](CS)C(=O)N1CCC[C@H]1C(=O)O"
A) 21.1
